tested on: 855422-203-R-J1-PDC complex spheroids, viability; assay: Anticancer human tumor 855422-203-R-J1-PDC patient-derived bladder carcinoma cell line growth inhibition [CLK]; details: second compound 3.16 µM; first compound 0.00949 µM; stronger effect = lower value;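 further: spheroids exposed to drugs for seven days before readout; 100% = DMSO vehicle control wells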
Assign viability, T/C to each entry below.
Write the answer as a number in %, unit excluded.

Exercise: Reported viability, T/C, compound CC(C)CC(NC(=O)C(Cc1ccccc1)NC(=O)c1cnccn1)B(O)O (stereo unspecified) + CNC(=O)c1ccc(Nc2nc(OC3CCCC3)c3c(-c4ccc5nc(C)oc5c4)c[nH]c3n2)c(OC)c1 : ____
Solution: 0.65

Exercise: Returns the measured viability, T/C for the input compound. Input: C=CC(=O)Nc1cc(Nc2nccc(-c3cn(C)c4ccccc34)n2)c(OC)cc1N(C)CCN(C)C + CN1CCN(c2cc(C(=O)Nc3cc4cc(-c5cnn(C)c5)ccc4cn3)ccn2)CC1
Solution: 0.64

Exercise: Give its viability, T/C value. Item: NC(=O)C(=Cn1cnc(-c2cc(C(F)(F)F)cc(C(F)(F)F)c2)n1)c1cncnc1 + CN1CCN(c2cc(C(=O)Nc3cc4cc(-c5cnn(C)c5)ccc4cn3)ccn2)CC1
Solution: 0.27

Exercise: I would be grateful if you could share the reported viability, T/C for C=CC(=O)Nc1cc(Nc2nccc(-c3cn(C)c4ccccc34)n2)c(OC)cc1N(C)CCN(C)C + CNC(=O)c1ccc(Nc2nc(OC3CCCC3)c3c(-c4ccc5nc(C)oc5c4)c[nH]c3n2)c(OC)c1 .
Solution: 20.8

Exercise: Please give the measured viability, T/C for this compound: NC(=O)C(=Cn1cnc(-c2cc(C(F)(F)F)cc(C(F)(F)F)c2)n1)c1cncnc1 + CNC(=O)c1ccc(Nc2nc(OC3CCCC3)c3c(-c4ccc5nc(C)oc5c4)c[nH]c3n2)c(OC)c1
Solution: 14.3

Exercise: Dear colleague, I am looking for the recorded viability, T/C of the following compound: CC(C)CC(NC(=O)C(Cc1ccccc1)NC(=O)c1cnccn1)B(O)O (stereo unspecified) + CN1CCN(c2cc(C(=O)Nc3cc4cc(-c5cnn(C)c5)ccc4cn3)ccn2)CC1
Solution: 1.95
